B1: glmS ribozyme (parent)
chain: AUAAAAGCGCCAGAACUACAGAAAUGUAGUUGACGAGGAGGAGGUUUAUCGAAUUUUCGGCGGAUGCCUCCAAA

Variants of: B1
Experiment: kcat; higher = faster cleavage; RNA array
Details: with glucosamine-6-phosphate
Fewer inactive variants are shown than the library holds.
readout: kcat (s⁻¹)
Give bare numbers, in s⁻¹.

Recorded kcat, per entry:
> print(dat)
   mutation.spec  readout  measured.result
1      A53G G59U     kcat         2.73e-05
2      G29C A53G     kcat          0.00235

For each of the variants below, note its kcat.
1. A6G A53U
2. C11U G66A U69A

Completion:
[0.000303, "5.61e-05"]

For each of the variants below, note its kcat.
1. A42G A48U
2. C16A U46A
3. A53C C70A
4. U49G C70A
5. A12U C61A G63C C70U

Completion:
1: 0.00077; 2: 7.31e-05; 3: 5.94e-05; 4: 1.52e-05; 5: 3.89e-05
